activation at 57 µM reference
- target: hPK, M2 (Homo sapiens, UniProt P14618)
- Sequence (P14618 whole entry): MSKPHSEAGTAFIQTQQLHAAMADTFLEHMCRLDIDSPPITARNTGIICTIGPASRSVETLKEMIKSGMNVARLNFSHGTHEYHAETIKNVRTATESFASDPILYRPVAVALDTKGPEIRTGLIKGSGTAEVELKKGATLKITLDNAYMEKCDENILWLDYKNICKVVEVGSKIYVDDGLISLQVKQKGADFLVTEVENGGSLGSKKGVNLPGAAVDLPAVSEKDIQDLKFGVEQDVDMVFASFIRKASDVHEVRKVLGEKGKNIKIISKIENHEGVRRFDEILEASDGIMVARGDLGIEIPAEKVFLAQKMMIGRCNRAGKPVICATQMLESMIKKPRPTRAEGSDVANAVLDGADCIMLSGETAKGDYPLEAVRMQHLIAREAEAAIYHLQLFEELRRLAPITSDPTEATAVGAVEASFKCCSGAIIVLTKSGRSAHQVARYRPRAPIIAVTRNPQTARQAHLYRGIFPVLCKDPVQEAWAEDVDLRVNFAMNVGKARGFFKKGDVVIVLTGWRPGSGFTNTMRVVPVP
- method_description: luminescent pyruvate kinase-luciferase coupled assay (qHTS)
- Type: biochemical
- assay_context: Table 1; % activation at 57 μM of compound; mean of three replicate experiments; read-out: hPK, M2 Max. Res.
Form entry: value (%) — number only.

Cc1ccc(NS(=O)(=O)c2ccc3c(c2)n(C)c(=O)n3C)cc1C = 100
Cc1ccc(NS(=O)(=O)c2ccc3[nH]c(=O)[nH]c3c2)cc1C = 59
Cc1ccc(NS(=O)(=O)c2ccc3c(c2)NC(=O)CO3)cc1C = 93

Enquiry: # input compound: `Cc1ccc(NS(=O)(=O)c2ccc3c(ccn3C)c2)cc1C` ; wanted: its activation at 57 µM
Return: 40

Enquiry: And for `Cc1ccc(NS(=O)(=O)c2ccc3c(c2)CCCC(=O)N3)cc1C` ?
Return: 66

Enquiry: And for `Cc1ccc(NS(=O)(=O)c2ccc3c(c2)N(C)C(=O)CO3)cc1C` ?
Return: 120

----------
- target: hPK, M2 (Homo sapiens, UniProt P14618)
- method_description: luminescent pyruvate kinase-luciferase coupled assay (qHTS)
- Format: biochemical
- assay_context: Table 4; maximum response (activation); read-out: Max. Res.
- Protocol: AC50 values were determined utilizing the luminescent pyruvate kinase-luciferase coupled assay (Inglese, J. et al, Quantitative high-throughput screening: a titration-based approach that efficiently identifies biological activities in large chemical libraries. Proc. Natl. Acad. Sci. U.S.A. 2006, 103, 11473-11478). […] Production of a luminescent signal based on the generation of ATP by pyruvate kinase was determined by using the ATP-dependent enzyme firefly luciferase. […]
Emax reference
Form entry: value (%) — number only.

CC(=O)N1c2ccc(S(=O)(=O)Nc3ccc(C)c(C)c3)cc2CC1C (stereo not drawn) [Compound 47] = 112
Cc1c(Cl)cccc1NS(=O)(=O)c1cc2c(cc1Cl)CCC(=O)N2 [Compound 59] = 109
Cc1ccc(NS(=O)(=O)c2ccc3c(c2)CCC(=O)N3)cc1F [Compound 55] = 131
Cc1ccc(NS(=O)(=O)c2cc3c(cc2N[C@H](C)CO)NC(=O)CC3)cc1C [Compound 69] = 87.7
Cc1ccc(NS(=O)(=O)c2cc3c(cc2N[C@@H](C)CO)NC(=O)CC3)cc1Cl [Compound 71] = 124

Enquiry: Give hPK, M2 (Homo sapiens, UniProt P14618) Emax for Cc1cc(NS(=O)(=O)c2cc3c(cc2F)NC(=O)CC3)ccc1Cl [Compound 56]
Return: 94.2

Enquiry: And for O=C1CCc2cc(S(=O)(=O)Nc3cccc(B(O)O)c3)ccc2N1 [Compound 52] ?
Return: 99.3

Enquiry: And for Cc1ccc(NS(=O)(=O)c2cc3c(cc2NC(C)C)NC(=O)CC3)cc1C [Compound 65] ?
Return: 106

Enquiry: And for Cc1ccc(NS(=O)(=O)c2ccc3c(c2)C(Cl)(Cl)C(=O)N3)cc1C [Compound 60] ?
Return: 117

----------
activation at 57 µM reference
- target: hPK, M2 (Homo sapiens)
- method_description: luminescent pyruvate kinase-luciferase coupled assay (qHTS)
- Format: biochemical
- assay_context: Table 3; % activation at 57 μM of compound; mean of three replicate experiments; read-out: hPK, M2 Max. Res.
Form entry: value (%) — number only.

Cc1ccc(NS(=O)(=O)c2cc3c(cc2N(C)C)NC(=O)CC3)cc1C [Compound 32] = 106
Cc1ccc(NS(=O)(=O)c2cc3c(cc2N2CCCCC2)NC(=O)CC3)cc1C [Compound 34] = 57
Cc1ccc(NS(=O)(=O)c2cc3c(cc2F)NC(=O)CC3)cc1C [Compound 31] = 115

Enquiry: # input compound: Cc1ccc(NS(=O)(=O)c2cc3c(cc2N(C)C)CCC(=O)N3)cc1C [Compound 36] ; wanted: its activation at 57 µM
Return: 110

Enquiry: And for Cc1ccc(NS(=O)(=O)c2cc3c(cc2-c2ccccc2)NC(=O)CO3)cc1C [Compound 40] ?
Return: 36

Enquiry: And for Cc1ccc(NS(=O)(=O)c2cc3c(cc2C)NC(=O)CO3)cc1C [Compound 39] ?
Return: 106

Enquiry: And for Cc1ccc(NS(=O)(=O)c2cc3c(cc2Br)NC(=O)CO3)cc1C [Compound 38] ?
Return: 103

Enquiry: And for CNc1cc2c(cc1S(=O)(=O)Nc1ccc(C)c(C)c1)CCC(=O)N2 [Compound 33] ?
Return: 53

Enquiry: And for Cc1ccc(NS(=O)(=O)c2cc3c(cc2Cl)NC(=O)CO3)cc1C [Compound 37] ?
Return: 95

Enquiry: And for Cc1ccc(NS(=O)(=O)c2cc3c(cc2Cl)CCC(=O)N3)cc1C [Compound 35] ?
Return: 104

Data origin, for the record: patent US9708267B2
